- Species on record: Oryctolagus cuniculus
- assay comment: Inhibition of rabbit platelet PDE5A using [3H]cGMP as substrate at 1 uM after 30 mins by scintillation proximity assay

{"cpd smiles": "CCOc1ccc(S(=O)(=O)N2CCCC2)cc1-c1nnc2c(n1)c(C)nn2C", "inhibition": "24.1%"}
{"cpd smiles": "CCOc1ccc(S(=O)(=O)NCCNS(=O)(=O)c2ccc(OCC)c(-c3nnc4c(n3)c(C)nn4C)c2)cc1-c1nnc2c(n1)c(C)nn2C", "inhibition": "28.1%"}
{"cpd smiles": "CCOc1ccc(S(=O)(=O)NCCN)cc1-c1nnc2c(n1)c(C)nn2C", "inhibition": "0%"}
{"cpd smiles": "CCOc1ccc(S(=O)(=O)N2CCN(S(=O)(=O)c3ccc(OCC)c(-c4nnc5c(n4)c(C)nn5C)c3)CC2)cc1-c1nnc2c(n1)c(C)nn2C", "inhibition": "11.4%"}
{"cpd smiles": "CCOc1ccc(S(=O)(=O)N2CCOCC2)cc1-c1nnc2c(n1)c(C)nn2C", "inhibition": "0%"}

* * *

- System: Leptosphaeria sacchari
- assay comment: Inhibition of Leptosphaeria sacchari tyrosinase using L-DOPA as substrate at 0.3 mg/ml incubated for 10 mins prior to substrate addition […] by spectrophotometry
Below is a list of entries, each paired with its recorded inhibition value.

{"cpd smiles": "CCOc1ccc(S(=O)(=O)NCCNS(=O)(=O)c2ccc(OCC)c(-c3nnc4c(n3)c(C)nn4C)c2)cc1-c1nnc2c(n1)c(C)nn2C", "tested target": "Leptosphaeria sacchari", "unit descriptor": "%", "inhibition": 79.7}
{"cpd smiles": "CCOc1ccc(S(=O)(=O)N2CCN(C)CC2)cc1-c1nnc2nn(C)c(C)c2n1", "tested target": "Leptosphaeria sacchari", "unit descriptor": "%", "inhibition": 54.8}
{"cpd smiles": "CCCc1nn(C)c2nnc(-c3cc(S(=O)(=O)N4CCN(C)CC4)ccc3OCC)nc12", "tested target": "Leptosphaeria sacchari", "unit descriptor": "%", "inhibition": 57.1}
{"cpd smiles": "CCOc1ccc(S(=O)(=O)N2CCCNCC2)cc1-c1nnc2c(n1)c(C)nn2C", "tested target": "Leptosphaeria sacchari", "unit descriptor": "%", "inhibition": 62.1}
{"cpd smiles": "CCOc1ccc(S(=O)(=O)N2CCCC2)cc1-c1nnc2c(n1)c(C)nn2C", "tested target": "Leptosphaeria sacchari", "unit descriptor": "%", "inhibition": 60.4}
{"cpd smiles": "CCOc1ccc(S(=O)(=O)N2CCN(C)CC2)cc1-c1nnc2c(n1)c(C)nn2C", "tested target": "Leptosphaeria sacchari", "unit descriptor": "%", "inhibition": 58.8}
{"cpd smiles": "CCOc1ccc(S(=O)(=O)N2CCCCC2)cc1-c1nnc2c(n1)c(C)nn2C", "tested target": "Leptosphaeria sacchari", "unit descriptor": "%", "inhibition": 59.8}
{"cpd smiles": "CCOc1ccc(S(=O)(=O)NCCO)cc1-c1nnc2c(n1)c(C)nn2C", "tested target": "Leptosphaeria sacchari", "unit descriptor": "%", "inhibition": 39.5}
{"cpd smiles": "CCOc1ccc(S(=O)(=O)NCCN2CCOCC2)cc1-c1nnc2c(n1)c(C)nn2C", "tested target": "Leptosphaeria sacchari", "unit descriptor": "%", "inhibition": 62.1}
{"cpd smiles": "CCOc1ccc(S(=O)(=O)NCCN)cc1-c1nnc2c(n1)c(C)nn2C", "tested target": "Leptosphaeria sacchari", "unit descriptor": "%", "inhibition": 96.3}
{"cpd smiles": "CCOc1ccc(S(=O)(=O)N(CC)CC)cc1-c1nnc2c(n1)c(C)nn2C", "tested target": "Leptosphaeria sacchari", "unit descriptor": "%", "inhibition": 68.3}
{"cpd smiles": "CCOc1ccc(S(=O)(=O)N2CCNCC2)cc1-c1nnc2c(n1)c(C)nn2C", "tested target": "Leptosphaeria sacchari", "unit descriptor": "%", "inhibition": 70.5}
{"cpd smiles": "CCOc1ccc(S(=O)(=O)N2CCOCC2)cc1-c1nnc2c(n1)c(C)nn2C", "tested target": "Leptosphaeria sacchari", "unit descriptor": "%", "inhibition": 51.4}

* * *

- assay comment: Inhibition of Leptosphaeria sacchari tyrosinase using L-DOPA as substrate incubated for 10 mins prior to substrate addition […] by spectrophotometry
Criterion: IC50 strictly less than 100 µg/mL. Met: label 1. Not met: label 0.

{"cpd smiles": "CCCc1nn(C)c2nnc(-c3cc(S(=O)(=O)N4CCN(C)CC4)ccc3OCC)nc12", "label class": "label 0"}
{"cpd smiles": "CCOc1ccc(S(=O)(=O)NCCN)cc1-c1nnc2c(n1)c(C)nn2C", "label class": "label 1"}
{"cpd smiles": "CCOc1ccc(S(=O)(=O)NCCN2CCOCC2)cc1-c1nnc2c(n1)c(C)nn2C", "label class": "label 0"}
{"cpd smiles": "CCOc1ccc(S(=O)(=O)N(CC)CC)cc1-c1nnc2c(n1)c(C)nn2C", "label class": "label 0"}
{"cpd smiles": "CCOc1ccc(S(=O)(=O)N2CCN(C)CC2)cc1-c1nnc2c(n1)c(C)nn2C", "label class": "label 0"}
{"cpd smiles": "CCOc1ccc(S(=O)(=O)N2CCCC2)cc1-c1nnc2c(n1)c(C)nn2C", "label class": "label 1"}

* * *

- Test system: Leptosphaeria sacchari
- assay comment: Inhibition of Leptosphaeria sacchari tyrosinase using L-DOPA as substrate assessed as remaining activity at 0.3 mg/ml incubated for 10 mins prior to substrate addition […] by spectrophotometry
Criterion: Activity strictly less than 40%. Met: class 1. Not met: class 0.

{"cpd smiles": "CCOc1ccc(S(=O)(=O)NCCO)cc1-c1nnc2c(n1)c(C)nn2C", "label class": "class 0"}
{"cpd smiles": "CCOc1ccc(S(=O)(=O)N2CCNCC2)cc1-c1nnc2c(n1)c(C)nn2C", "label class": "class 1"}
{"cpd smiles": "CCOc1ccc(S(=O)(=O)NCCN)cc1-c1nnc2c(n1)c(C)nn2C", "label class": "class 1"}
{"cpd smiles": "CCOc1ccc(S(=O)(=O)N2CCN(C)CC2)cc1-c1nnc2c(n1)c(C)nn2C", "label class": "class 0"}
{"cpd smiles": "CCOc1ccc(S(=O)(=O)N2CCOCC2)cc1-c1nnc2c(n1)c(C)nn2C", "label class": "class 0"}
{"cpd smiles": "CCOc1ccc(S(=O)(=O)NCCN2CCOCC2)cc1-c1nnc2c(n1)c(C)nn2C", "label class": "class 1"}
{"cpd smiles": "CCOc1ccc(S(=O)(=O)N2CCN(C)CC2)cc1-c1nnc2nn(C)c(C)c2n1", "label class": "class 0"}
{"cpd smiles": "CCCc1nn(C)c2nnc(-c3cc(S(=O)(=O)N4CCN(C)CC4)ccc3OCC)nc12", "label class": "class 0"}

* * *

- Species: Oryctolagus cuniculus
- assay comment: Inhibition of rabbit platelet PDE5A using [3H]cGMP as substrate at 1 uM after 30 mins by scintillation proximity assay
Could you label it Fulfilled if measured inhibition is 10% or higher, and Not fulfilled otherwise?

{"cpd smiles": "CCOc1ccc(S(=O)(=O)N2CCNCC2)cc1-c1nnc2c(n1)c(C)nn2C", "label class": "Fulfilled"}
{"cpd smiles": "CCOc1ccc(S(=O)(=O)N2CCCCC2)cc1-c1nnc2c(n1)c(C)nn2C", "label class": "Fulfilled"}
{"cpd smiles": "CCOc1ccc(S(=O)(=O)NCCN2CCOCC2)cc1-c1nnc2c(n1)c(C)nn2C", "label class": "Fulfilled"}
{"cpd smiles": "CCOc1ccc(S(=O)(=O)N2CCCNCC2)cc1-c1nnc2c(n1)c(C)nn2C", "label class": "Not fulfilled"}
{"cpd smiles": "CCCc1nn(C)c2nnc(-c3cc(S(=O)(=O)N4CCN(C)CC4)ccc3OCC)nc12", "label class": "Not fulfilled"}
